Assign OD 490/630 nm to each entry below.
target: T1, Ala mutant of TA0096, SEQ ID NO: 38; assay: ELISA, coated peptide
T1 peptide: EENMDDQWMQDAMEIGY
Reply briefly: the number, and no unit.

OD 490/630 nm recorded for this binder, E9 (antibody, V domains shown, Chicken variable regions in a mouse chimeric antibody (IgG1); also called anti-PAD4 antibody E9) VH: AVTLDESGGGLQTPGGTLSLVCKGSGFTFSSYGMGWMRQAPGKGLEYVAAIRNDGSWTGYGSAVKGRATISRDNGQSTVRLQLNNLRAEDTATYYCAKTSGSSGGSVDAWGHGTEVIVS VL: ASTQPSSVSANLGGTVEITCSGGGRYYYGWYQQKSPGSAPVTVIYANDKRPSDIPSRFSGSKSGSTGTLTITGVQAEDEAVYFCGSAETSSYVFGAGTTLTVL , is 1.91

For record A11 (antibody, V domains shown, Chicken variable regions in a mouse chimeric antibody (IgG1); also called anti-PAD4 antibody A11) VH: AVTLDESGGGLQTPGGALSLVCKASGFDFSSYGMGWMRQAPGKGLEYVAAIRNDGSWTGYGAAVKGHATISRDNGQSTVRLQLNNLRAEDTGTYYCAKTTGSRGGSIDAWGHGTEVIVS VL: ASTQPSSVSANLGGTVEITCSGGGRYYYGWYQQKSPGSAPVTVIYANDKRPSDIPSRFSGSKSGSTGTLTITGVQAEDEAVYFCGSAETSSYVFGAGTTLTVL the listed OD 490/630 nm is 1.89

Reported OD 490/630 nm for G9 (antibody, V domains shown, Chicken variable regions in a mouse chimeric antibody (IgG1); also called anti-PAD4 antibody G9) VH: AVTLDESGGGLQTPGGALSLVCKASGFTFSTYAMGWMRQAPGKGLEYVAAIRNDGSWTGYGAAVKGRATILRDNGQSTVRLQLSNLRAEDTGTYYCAKYTGSSGGSIGAWGHGTEVIVS VL: AVTQPASVSANLGGTVEITCSGGGRYYYGWYQQKSPGSAPVTVIYANDKRPSDIPSRFSGSKSGSTGTLTITGVQAEDEAVYFCGSAETSSYVFGAGTTLTVL was 1.96

The value of OD 490/630 nm measured for the binder H7 (antibody, V domains shown, Chicken variable regions in a mouse chimeric antibody (IgG1); also called anti-PAD4 antibody H7) VH: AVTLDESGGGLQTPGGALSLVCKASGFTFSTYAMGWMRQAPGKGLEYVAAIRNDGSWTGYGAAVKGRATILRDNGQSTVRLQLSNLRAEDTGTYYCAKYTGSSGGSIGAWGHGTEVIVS VL: ASTQPSSVSANPGGTVEITCSGGSGRYYYGWYQQKSPGSAPVTVIYSSTHRPSNIPSRFSGSKSGSTATLTITGVQAEDEAVYFCGTADSSSYVFGAGTTLTVL turned out to be 1.99

Just for reference, patent US20180044434A1 is where these values come from.
